Target: human mAChRM1 (Homo sapiens, UniProt P11229)
Construct: host or cells: CHO-K1
Experiment: mAChR M1 cell-based functional assay (calcium mobilization), positive allosteric modulator activity: increase in the EC20 acetylcholine response
Conditions: increase in the EC20 acetylcholine response, read-out: PAM Activity Human M1 EC50
attribute.measured: EC50 (nM)

Cn1nc(-c2cc(F)c(CN3Cc4ncccc4C3=O)c(F)c2)c2ccc(C(C)(C)O)cc21
9570
[2H]C1([2H])c2ncccc2C(=O)N1Cc1c(F)cc(-c2ccc(C(C)(C)O)c3nn(C)cc23)cc1N1CCC1
1270
Cn1cc2c(-c3cc(F)c(CN4Cc5ncccc5C4=O)cc3F)ccc(C(C)(C)O)c2n1
180
Cn1cc2cc(-c3cc(F)c(CN4Cc5ncccc5C4=O)c(C4CC4)c3)cc(C(C)(C)O)c2n1
398

(a) Cn1cc2c(-c3cc(F)c(CN4Cc5cccc(F)c5C4=O)c(Cl)c3)ccc(C(C)(C)O)c2n1
(b) Cc1cc(-c2ccc(C(C)(C)O)c3nn(C)cc23)cc(F)c1CN1Cc2cccc(F)c2C1=O
Problem: I'm curious, which of these has a smaller EC50 number: a or b ? Please identify the chosen entry by its label.
Result: b

###

Molecular target: human mAChRM1 (Homo sapiens, UniProt P11229)
Construct: host or cells: CHO-K1
Sequence (P11229 1-460): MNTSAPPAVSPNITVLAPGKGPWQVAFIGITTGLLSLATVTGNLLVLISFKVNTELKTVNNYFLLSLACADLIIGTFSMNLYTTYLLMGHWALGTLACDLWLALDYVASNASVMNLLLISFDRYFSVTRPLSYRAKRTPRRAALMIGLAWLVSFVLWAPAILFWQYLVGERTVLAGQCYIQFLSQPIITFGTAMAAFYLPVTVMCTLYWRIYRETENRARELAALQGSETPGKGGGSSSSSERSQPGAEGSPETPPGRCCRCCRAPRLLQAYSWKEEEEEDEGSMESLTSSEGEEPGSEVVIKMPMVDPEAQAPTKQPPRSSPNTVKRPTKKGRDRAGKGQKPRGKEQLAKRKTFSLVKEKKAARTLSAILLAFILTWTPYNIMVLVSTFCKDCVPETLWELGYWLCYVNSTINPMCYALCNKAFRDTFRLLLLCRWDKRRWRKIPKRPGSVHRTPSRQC
Assay: mAChR M1 cell-based functional assay (calcium mobilization), positive allosteric modulator activity: increase in the EC20 acetylcholine response
Settings: PAM mode
Experimental: Chinese hamster ovary (CHO-K1) cells stably expressing rat (r)M1 were purchased from the American Type Culture Collection and cultured according to their indicated protocol. […] Calcium flux was measured using the Functional Drug Screening System (FDSS) 6000 (Hamamatsu Corporation, Tokyo, Japan) as an increase in the fluorescent static ratio. […] Agonist activity was analyzed as a concentration-dependent increase in calcium mobilization upon compound addition. […]
attribute.measured: Emax (%)

Recorded results for 6 molecules are shown here.
Cn1cc2cc(-c3ccc(CN4Cc5ncccc5C4=O)cc3)cc(C(C)(C)O)c2n1
67
Cn1cc2c(-c3cc(F)c(CN4Cc5cccnc5C4=O)c(C4CC4)c3)ccc(C(C)(C)O)c2n1
79
CC(C)n1cc2c(-c3cc(F)c(CN4Cc5ncccc5C4=O)c(F)c3)ccc(C(C)(C)O)c2n1
86
Cc1cc(-c2cc(C(C)(C)O)c3nn(C)cc3c2)cc(F)c1CN1Cc2cccc(F)c2C1=O
79
CCC(O)(CC)c1ccc(-c2ccc(CN3Cc4ncccc4C3=O)c(F)c2)c2cn(C)nc12
78
Cn1cc2c(-c3cc(F)c(CN4Cc5cccc(F)c5C4=O)c(F)c3)ccc(C(C)(C)O)c2n1
87

(a) CC[C@](C)(O)c1ccc(-c2cc(F)c(CN3Cc4ncccc4C3=O)c(F)c2)c2cn(C)nc12
(b) Cn1cc(-c2ccc(CN3Cc4ncccc4C3=O)c(F)c2)c(C(C)(C)O)n1
Problem: I'm curious, which of these has a smaller Emax number: a or b ? Please identify the chosen entry by its label.
Result: b
(b: 56%, a: 87%)

###

Target: human mAChRM1 (Homo sapiens, UniProt P11229)
Construct: host or cells: CHO-K1
Sequence (P11229 1-460): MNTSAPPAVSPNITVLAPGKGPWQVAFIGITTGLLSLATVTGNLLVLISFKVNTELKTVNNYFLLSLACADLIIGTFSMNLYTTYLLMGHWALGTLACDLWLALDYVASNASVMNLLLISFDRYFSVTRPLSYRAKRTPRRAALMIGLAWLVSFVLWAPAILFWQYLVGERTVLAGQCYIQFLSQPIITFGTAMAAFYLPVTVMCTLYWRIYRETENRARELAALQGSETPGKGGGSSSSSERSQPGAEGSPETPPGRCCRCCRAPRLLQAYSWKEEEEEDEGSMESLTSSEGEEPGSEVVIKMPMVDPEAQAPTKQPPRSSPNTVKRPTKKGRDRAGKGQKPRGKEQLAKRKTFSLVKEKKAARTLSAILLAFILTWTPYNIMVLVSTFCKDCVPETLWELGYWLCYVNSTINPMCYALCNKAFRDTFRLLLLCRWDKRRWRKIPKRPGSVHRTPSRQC
Experiment: mAChR M1 cell-based functional assay (calcium mobilization), positive allosteric modulator activity: increase in the EC20 acetylcholine response
Settings: increase in the EC20 acetylcholine response, read-out: PAM Activity Human M1 EC50
attribute.measured: EC50 (nM)

(I) Cn1cc2c(-c3ccc(CN4Cc5cccc(F)c5C4=O)c(F)c3)ccc(C(C)(C)O)c2n1
(II) Cc1cc(-c2cc(C(C)(C)O)cc3nn(C)cc23)ccc1CN1Cc2ncccc2C1=O
Problem: Thinking about recorded EC50 values, which is higher, I or II ? Please identify the chosen entry by its label.
Result: II

###

Biological target: human mAChRM1 (Homo sapiens)
Construct: host or cells: CHO-K1
Assay: mAChR M1 cell-based functional assay (calcium mobilization), positive allosteric modulator activity: increase in the EC20 acetylcholine response
Conditions: PAM mode
attribute.measured: Emax (%)

Cn1cc2c(-c3ccc(CN4Cc5ncccc5C4=O)nn3)ccc(C(C)(C)O)c2n1
27
CC(C)(O)c1cc(-c2cc(F)c(CN3Cc4ncccc4C3=O)c(F)c2)cc2cccnc12
72
Cn1cc2c(-c3ccc(CN4Cc5cccnc5C4=O)c(F)c3)ccc(C(C)(C)O)c2n1
88

(1) CC(C)(O)c1ccc(-c2cc(F)c(CN3Cc4ncccc4C3=O)c(F)c2)c2cccnc12
(2) Cn1cc2c(-c3cc(F)c(CN4Cc5ncccc5C4=O)c(F)c3)ccc(C(C)(O)C(F)F)c2n1 (centres unmarked)
Problem: I'm curious, which of these has a smaller Emax number: 1 or 2 ? Please identify the chosen entry by its label.
Result: 1
(1: 59%, 2: 88%)

(a) Cc1cc(-c2ccc(C(C)(C)O)cc2)ccc1CN1Cc2cccnc2C1=O
(b) Cn1nc2cc(C(C)(C)O)ccc2c1-c1cc(F)c(CN2Cc3ncccc3C2=O)c(F)c1
Problem: I'm curious, which of these has a smaller Emax number: a or b ? Please identify the chosen entry by its label.
Result: b

###

Molecular target: human mAChRM1 (Homo sapiens)
Construct: host or cells: CHO-K1
Assay: mAChR M1 cell-based functional assay (calcium mobilization), positive allosteric modulator activity: increase in the EC20 acetylcholine response
Conditions: increase in the EC20 acetylcholine response, read-out: PAM Activity Human M1 EC50
attribute.measured: EC50 (nM)

Recorded results for 4 compounds are shown here.
Cc1cc(-c2ccc(C(C)(C)O)c3nn(C)cc23)ccc1CN1Cc2cccc(F)c2C1=O
521
Cn1cc2c(-c3cc(F)c(CN4Cc5cccnc5C4=O)c(F)c3)ccc(C(C)(C)O)c2n1
201
Cc1cc(-c2ccc(C(C)(C)O)c3nn(C)cc23)ccc1CN1Cc2cccnc2C1=O
499
CCC(O)(c1ccc(-c2cc(F)c(CN3Cc4ncccc4C3=O)c(F)c2)c2cn(C)nc12)C(F)(F)F (stereo not drawn)
4470

(A) Cn1cc2c(-c3cc(F)c(CN4Cc5ncccc5C4=O)c(F)c3)ccc(C3(O)CCCC3)c2n1
(B) CC(C)COc1cc(-c2ccc(C(C)(C)O)cc2)cc(F)c1CN1Cc2ncccc2C1=O
(C) Cc1cc(-c2cc(C(C)(C)O)c3nn(C)cc3c2)ccc1CN1Cc2ncccc2C1=O
Problem: Ordering criterion: EC50; begin with the maximum. Lab note: final answer is the ordered label list.
Result: B, C, A
(B: 2320 nM, C: 958 nM, A: 254 nM)

###

Target: human mAChRM1 (Homo sapiens, UniProt P11229)
Construct: host or cells: CHO-K1
Sequence (P11229 1-460): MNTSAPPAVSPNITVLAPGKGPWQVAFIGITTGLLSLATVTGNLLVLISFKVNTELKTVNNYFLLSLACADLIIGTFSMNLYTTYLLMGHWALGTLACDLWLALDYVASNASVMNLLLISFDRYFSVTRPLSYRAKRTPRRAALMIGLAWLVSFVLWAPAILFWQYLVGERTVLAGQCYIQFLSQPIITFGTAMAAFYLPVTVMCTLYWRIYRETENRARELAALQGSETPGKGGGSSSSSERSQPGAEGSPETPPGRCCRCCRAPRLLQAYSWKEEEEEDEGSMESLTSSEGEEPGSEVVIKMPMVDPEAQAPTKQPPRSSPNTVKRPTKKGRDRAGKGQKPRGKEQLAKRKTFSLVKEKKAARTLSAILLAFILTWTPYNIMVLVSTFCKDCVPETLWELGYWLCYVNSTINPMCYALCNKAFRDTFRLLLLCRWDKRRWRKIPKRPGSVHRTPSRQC
Experiment: mAChR M1 cell-based functional assay (calcium mobilization), agonist activity upon compound addition, Emax relative to acetylcholine maximum
Conditions: relative to the maximum for acetylcholine
attribute.measured: Emax (%)

Cn1cc2c(-c3cc(F)c(CN4Cc5ccncc5C4=O)c(F)c3)ccc(C(C)(C)O)c2n1
41
[2H]C1([2H])c2ncccc2C(=O)N1Cc1c(F)cc(-c2ccc(C(C)(C)O)c3nn(C([2H])([2H])[2H])cc23)cc1C1CC1 (single isomer, unassigned)
43
Cn1cc2cc(-c3ccc(CN4Cc5ncccc5C4=O)c(F)c3)cc(C(C)(C)O)c2n1
17
Cn1cc2c(-c3cc(F)c(CN4Cc5ncccc5C4=O)c(F)c3)ccc(C3(O)CN(C(=O)OC(C)(C)C)C3)c2n1
13
Cc1nc2c(-c3cc(F)c(CN4Cc5ncccc5C4=O)c(F)c3)ccc(C(C)(C)O)n2n1
29
[2H]C([2H])([2H])n1cc2c(-c3cc(C)c(CN4Cc5ncccc5C4=O)c(F)c3)ccc(C(C)(C)O)c2n1 (single isomer, unassigned)
41

(I) [2H]C1([2H])c2ncccc2C(=O)N1Cc1c(F)cc(-c2ccc(C(C)(C)O)c3nn(C([2H])([2H])[2H])cc23)cc1F
(II) Cn1cc2c(-c3cc(F)c(CN4Cc5ncccc5C4=O)c(C4CC4)c3)ccc(C(C)(C)O)c2n1
(III) [2H]C([2H])([2H])C(C)(O)c1ccc(-c2cc(F)c(CN3Cc4ncccc4C3=O)c(F)c2)c2cn(C)nc12 (centres unmarked)
(IV) Cn1cc2c(-c3cc(F)c(CN4Cc5ncccc5C4=O)c(Cl)c3)ccc(C(C)(C)O)c2n1
Problem: Ascending by Emax, please. Lab note: final answer is the ordered label list.
Result: I, IV, III, II
